src = patent US20240238423A9

- Tgt: Human BCL-XL protein (N-terminal HiBiT tagged BCL-XL in HT1080 cells) (Homo sapiens, UniProt Q07817)
- Construct: expressed in transfected cells; host or cells: HT-1080 (ATCC CCL-121), stably transduced with lentivirus pLV-UBC-N-HiBiT-BCL-XL-PGK-puro and selected with puromycin
- Sequence (Q07817 whole entry): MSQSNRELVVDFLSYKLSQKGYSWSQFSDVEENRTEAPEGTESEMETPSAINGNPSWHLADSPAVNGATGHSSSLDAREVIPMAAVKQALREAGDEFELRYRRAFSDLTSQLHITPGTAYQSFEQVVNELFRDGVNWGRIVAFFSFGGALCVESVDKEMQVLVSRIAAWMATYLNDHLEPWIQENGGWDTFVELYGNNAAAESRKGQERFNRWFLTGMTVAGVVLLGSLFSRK
- Protocol summary: HiBiT based degradation assay
- Format: cell-based
- Experimental setup: BCL-XL degradation normalized with DMSO control; HT1080 cells expressing HiBiT-BCL-XL; 24 h
Measurement label: Ymin (24 h)

Check out these entries, answers already filled in.
>>> reported("Cc1c(O[C@H]2CC[C@H](CCCCN3CCN(c4ccc5c(C6CCC(=O)NC6=O)nn(C)c5c4)C[C@@H]3C(F)(F)F)CC2)cccc1-c1ccc(N2CCc3cccc(C(=O)Nc4nc5ccccc5s4)c3C2)nc1C(=O)O (some centres unmarked) [Compound 346a]")
"A (Ymin < 50%)"
>>> reported("Cc1c(O[C@@H](C)CCC2CCN(CC(=O)Nc3cccc4c(C5CCC(=O)NC5=O)nn(C)c34)CC2)cccc1-c1ccc(N2CCc3cccc(C(=O)Nc4nc5ccccc5s4)c3C2)nc1C(=O)O (some centres unmarked) [Compound 169a]")
"B (50% ≤ Ymin < 70%)"
>>> reported("Cc1c(O[C@H]2CC[C@H](CCCN3CCN(c4ccc5c(C6CCC(=O)NC6=O)nn(C)c5c4)C[C@@H]3C(F)(F)F)CC2)cccc1-c1ccc(N2CCc3cccc(C(=O)Nc4nc5ccccc5s4)c3C2)nc1C(=O)O (some centres unmarked) [Compound 347a]")
"A (Ymin < 50%)"
>>> reported("Cc1c(OCCC[C@H]2CCN(CC(=O)Nc3ccc4c(C5CCC(=O)NC5=O)nn(C)c4c3)CC2(F)F)cccc1-c1ccc(N2CCc3cccc(C(=O)Nc4nc5ccccc5s4)c3C2)nc1C(=O)O (some centres unmarked) [Compound 193b]")
"B (50% ≤ Ymin < 70%)"

input: Quick one: Ymin (24 h) for Cc1c(O[C@H]2CC[C@H](CCC[C@H](C)N3CCN(c4ccc5c(C6CCC(=O)NC6=O)nn(C)c5c4)CC3)CC2)cccc1-c1ccc(N2CCc3cccc(C(=O)Nc4nc5ccccc5s4)c3C2)nc1C(=O)O (single isomer, unassigned) [Compound 333a] ?
output: A (Ymin < 50%)
